Test system: Mycobacterium tuberculosis
Assay Name: Antimycobacterial activity against rifampicin-resistant Mycobacterium tuberculosis ATCC 35838 by twofold agar dilution method
Format: functional
Recorded measurements of MIC, one per entry

Compound: CCc1c(CN2CCSCC2)cc(-c2ccccc2)n1-c1ccc(F)cc1
Unit Info: µg/mL
Bound Operator: =
MIC: 4
//
Compound: CCc1c(CN2CCSCC2)cc(-c2ccccc2)n1-c1ccccc1
Unit Info: µg/mL
Bound Operator: =
MIC: 4
//
Compound: CCc1c(CN2CCSCC2)cc(-c2ccc(C)cc2)n1-c1ccc(F)cc1
Unit Info: µg/mL
Bound Operator: =
MIC: 0.25
//
Compound: CCc1c(CN2CCSCC2)cc(-c2ccc(F)cc2)n1-c1ccccc1
Unit Info: µg/mL
Bound Operator: =
MIC: 1
//
Compound: CCc1c(CN2CCN(C)CC2)cc(-c2ccc(Cl)cc2)n1-c1ccc(Cl)cc1
Unit Info: µg/mL
Bound Operator: =
MIC: 4
//
Compound: CN[C@@H]1[C@H](O[C@H]2[C@H](O[C@H]3[C@H](O)[C@@H](O)[C@H](N=C(N)N)[C@@H](O)[C@@H]3N=C(N)N)O[C@@H](C)[C@]2(O)C=O)O[C@@H](CO)[C@H](O)[C@H]1O [STREPTOMYCIN]
Unit Info: µg/mL
Bound Operator: =
MIC: 0.5
//
Compound: CO[C@H]1/C=C/O[C@@]2(C)Oc3c(C)c(O)c4c(O)c(c(/C=N/N5CCN(C)CC5)c(O)c4c3C2=O)NC(=O)/C(C)=C\C=C\[C@H](C)[C@H](O)[C@@H](C)[C@@H](O)[C@@H](C)[C@H](OC(C)=O)[C@@H]1C [RIFAMPIN]
Unit Info: µg/mL
Bound Operator: >
MIC: 100
//
Compound: CCc1c(CN2CCSCC2)cc(-c2ccccc2F)n1-c1ccccc1F
Unit Info: µg/mL
Bound Operator: =
MIC: 8
//
Compound: CCc1c(CN2CCSCC2)cc(-c2ccc(F)cc2)n1-c1ccccc1F
Unit Info: µg/mL
Bound Operator: =
MIC: 2
